Items are presented alongside their recorded composite z-score.
# measuredOn: Concanavalin-A (Canavalia ensiformis)
# testDescription: ConA small-molecule binders, primary screen, artefact control for SMM control protein annotation, biochemical, small-molecule microarray, Alexa647 label, 635 nm (AID 1127);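 further: z combines 667 nm emission intensity with signal-to-noise across three replicate slides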
# measurementContext: ConA-A647 binding fluorescence, higher = more signal

Answered cases to consult:
moleculesmiles=CC[C@@H](c1ccccc1)n1c(=O)n2n(c1=O)[C@H]1[C@H](O)[C@@H]3O[C@@H]3C(=NOCC=C(C)CCC=C(C)C)[C@H]1CC2 val=0.548
moleculesmiles=COc1ccc(COC(=O)NN=C2C[C@@H](O)[C@@H](O)[C@@H]3[C@@H]4C(=O)N(c5ccc(F)cc5F)C(=O)[C@@H]4CC[C@@H]23)cc1 val=0.454

Query compound follows.
// query composite z-score value for entry "C=CCN1C(=O)[C@]2(O[C@H](CCn3cc(CCO)nn3)[C@@H]([Si](C)(C)c3ccc(OC)cc3)[C@@H]2C)c2cc(N3CCOC3=O)ccc21"
1.13

###

Items are presented alongside their recorded composite z-score.
# measuredOn: E3 ubiquitin-protein ligase XIAP (Homo sapiens)
# testDescription: XIAP binders, primary screen, biophysical, small-molecule microarray, fluorescence 635 nm (AID 1181);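 further: score merges 667 nm emission and signal to noise over triplicate slides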
# measurementContext: small-molecule microarray binding, higher = more signal
Answer field: number only, no words.

Answered cases to consult:
molecule=COCCOC(=O)N1C(=O)[C@@]2(c3cc(C#Cc4ccc(OC)cc4)ccc31)[C@H](c1ccc(O)cc1)N1[C@H](c3ccccc3)[C@H](c3ccccc3)OC(=O)[C@H]1[C@@H]2C(N)=O attributemeasured="composite z-score" val=-0.0559
molecule="CC(C)c1ccc(NN2C(C(O)c3ccc4c(c3)OCO4)C=CC3C(=O)N(c4ccccc4)C(=O)C32)cc1 (centres undefined)" attributemeasured="composite z-score" val=0.0641
molecule=CC(C)=C1C(=O)C(c2ccccc2)=C2CN3C(=O)N(CCc4ccccc4)C(=O)[C@]3(Cc3ccc(F)cc3)[C@H]21 attributemeasured="composite z-score" val=-0.02
molecule=COc1cccc([C@@H]2Oc3ccc(Br)cc3C(=O)[C@H]2O)c1 attributemeasured="composite z-score" val=-0.391
molecule=[N-]=[N+]=NCc1ccccc1C[C@]1(C(=O)NCc2ccccc2)N=C(c2ccc(OCCCO)cc2)O[C@H]1c1ccccc1N=[N+]=[N-] attributemeasured="composite z-score" val=-0.22
molecule="CC(CCN1CCCCc2nc(C)c(C)cc21)=NOC(C)CN1CCCCc2nc(C)c(C)cc21 (centres undefined)" attributemeasured="composite z-score" val=0.24
molecule=CO[C@@H]1COC(=O)CC=C[C@@H](C)[C@@H]2C=C[C@H](O)[C@@H](COC(=O)[C@H](C)NC(=O)CC=C[C@H]1C)O2 attributemeasured="composite z-score" val=-0.102
molecule=[N-]=[N+]=NCc1ccccc1[C@@H]1OC(c2ccc(OCCCO)cc2)=N[C@]1(Cc1ccccc1)C(=O)N1CCOCC1 attributemeasured="composite z-score" val=0.113
molecule=COc1ccc(O[C@H]2C=C[C@@H](c3ccccc3)O[C@@H]2COC(=O)N2CCCCC2)cc1 attributemeasured="composite z-score" val=-0.234
molecule=COc1ccc(CCNC(=O)[C@@H]2c3ccccc3C(=O)N(c3ccc(C)cn3)[C@H]2c2ccc(CO)cc2)cc1 attributemeasured="composite z-score" val=-0.267

// query composite z-score value for entry "CN1C(=O)[C@@]2(CCC(=O)OC(C)(C)C)N=C(c3ccc(OCCCO)cc3)O[C@H]2c2ccccc21"
0.169

Queued: "CC(CCN1CCc2nc(-c3ccccc3)c(-c3ccccc3)cc2C1)=NO[C@H](C)c1cn([C@@H]2COC[C@H]2O)nn1"
0.063

Queued: "O=C1[C@H]2[C@H]3[C@H](O)[C@H](O)CC(=NO[C@@H]4O[C@H](CO)[C@@H](O)[C@H](O)[C@H]4O)[C@@H]3CC[C@H]2C(=O)N1c1ccc(F)cc1F"
-0.313
